The entries below come with measured remaining at 2 h values attached.
experiment: Stability in human plasma assessed as parent compound remaining incubated for 2 hrs by UPLC/MS analysis; type: ADME, cell-free; conditions: read-out: Stability
Entry rule: numbers only, all in %.

Examples with answers:
{"test.smiles": "O=C1CCc2cccc(c2)OCCCC[C@@H](C(=O)NCc2ccccc2F)NC(=O)[C@H](CC(=O)N2CCC[C@@H]2c2ccccc2)N1", "units.label": "%", "remaining at 2 h": 97}
{"test.smiles": "O=C1CCCCCCCCOC[C@@H](C(=O)NCc2ccccc2F)NC(=O)[C@H](CC(=O)N2CCC[C@@H]2c2ccccc2)N1", "units.label": "%", "remaining at 2 h": 86}

Need remaining at 2 h of O=C1CCc2cccc(c2)Oc2ccc(cc2)C[C@@H](C(=O)NCc2ccccc2F)NC(=O)[C@H](CC(=O)N2CCC[C@@H]2c2ccccc2)N1 , thanks.
94

###

target: Proteasome subunit beta type-10 (Homo sapiens, UniProt P40306); test: Inhibition of human 20S immunoproteasome beta-2i subunit using Z-VLR-AMC as substrate measured over 1.5 to 2 hrs by plate reader assay
Sequence (P40306 whole entry): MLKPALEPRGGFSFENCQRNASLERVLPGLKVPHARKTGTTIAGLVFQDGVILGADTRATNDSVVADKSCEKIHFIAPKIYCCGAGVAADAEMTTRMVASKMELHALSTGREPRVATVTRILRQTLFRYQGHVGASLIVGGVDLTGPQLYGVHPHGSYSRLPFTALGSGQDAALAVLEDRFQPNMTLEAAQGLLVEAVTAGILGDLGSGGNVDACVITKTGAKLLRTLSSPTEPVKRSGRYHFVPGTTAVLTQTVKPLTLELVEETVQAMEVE
metric.name: pIC50
Kindly note that pIC50 refers to -log10 of the concentration in mol/L and answer with the value alone.

Need pIC50, item O=C1CCc2cccc(c2)OCCCC[C@@H](C(=O)NCc2ccccc2F)NC(=O)[C@H](CC(=O)N2CCC[C@@H]2C2CC2)N1
4.35

###

assay: Kinetic solubility of compound in PBS at pH 6.8 incubated for 24 hrs by UPLC/MS analysis; format: physicochemical; details: read-out: Kinetic_solubility
metric.name: solubility kinetic at 24 h

Form field: reported solubility kinetic at 24 h of O=C1CCc2cccc(c2)OCCCC[C@@H](C(=O)NCc2ccccc2F)NC(=O)[C@H](CC(=O)N2CCC[C@@H]2c2ccccc2)N1
33 µg/mL

Reported solubility kinetic at 24 h for O=C1CCc2cccc(c2)Oc2ccc(cc2)C[C@@H](C(=O)NCc2ccccc2F)NC(=O)[C@H](CC(=O)N2CCC[C@@H]2c2ccccc2)N1 : what is it?
1.4 µg/mL

###

assay: Inhibition of Mycobacterium tuberculosis 20S proteasome expressed in Escherichia coli BL21(DE3) using Suc-LLVY-AMC as substrate by plate reader assay
metric.name: Ki (nM)
Expressed in nM, but write only the number.

Quick check: Ki of O=C1CCc2cccc(c2)Oc2ccc(cc2)C[C@@H](C(=O)NCc2ccccc2F)NC(=O)[C@H](CC(=O)N2CCC[C@@H]2c2ccccc2)N1 ?
12.1

###

target: Proteasome subunit beta type-8 (Homo sapiens, UniProt P28062); assay: Inhibition of human 20S immunoproteasome beta-5i subunit using Suc-LLVY-AMC as substrate measured over 1.5 to 2 hrs by plate reader assay
pIC50: −log10 of the molar value.
metric.name: pIC50

Worked cases, pIC50 given:
{"compound": "CC(=O)N[C@H]1Cc2cccc(c2)Oc2ccc(cc2)C[C@@H](C(=O)NCc2ccccc2F)NC(=O)[C@H](CC(=O)N2CCC[C@@H]2c2ccccc2)NC1=O", "study.system": "Proteasome subunit beta type-8 (Homo sapiens, UniProt P28062)", "result": "< 4.00"}
{"compound": "O=C1CCc2cccc(c2)Oc2ccc(cc2)C[C@@H](C(=O)NCc2ccccc2F)NC(=O)[C@H](CC(=O)N2CCC[C@@H]2c2ccccc2)N1", "study.system": "Proteasome subunit beta type-8 (Homo sapiens, UniProt P28062)", "result": "< 4.00"}
{"compound": "O=C1CCc2cccc(c2)OCCCC[C@@H](C(=O)NCc2ccccc2F)NC(=O)[C@H](CC(=O)N2CCC[C@@H]2C2CC2)N1", "study.system": "Proteasome subunit beta type-8 (Homo sapiens, UniProt P28062)", "result": 7.16}
{"compound": "O=C1CCc2cccc(c2)OCCCC[C@@H](C(=O)NCc2ccccc2F)NC(=O)[C@H](CCN2CCC[C@@H]2c2ccccc2)N1", "study.system": "Proteasome subunit beta type-8 (Homo sapiens, UniProt P28062)", "result": 4.33}
{"compound": "O=C1CCCCCCCCC[C@@H](C(=O)NCc2cccc3ccccc23)NC(=O)[C@H](CC(=O)N2CCCC2)N1", "study.system": "Proteasome subunit beta type-8 (Homo sapiens, UniProt P28062)", "result": "< 4.00"}

Notebook: pull reported pIC50 for Proteasome subunit beta type-8 (Homo sapiens, UniProt P28062), entry O=C1CCCCCCCCCC[C@@H](C(=O)NCc2cccc3ccccc23)NC(=O)[C@H](CC(=O)N2CCCC2)N1
< 4.00

Any idea what pIC50 came out for O=C1CCCCCCCCOC[C@@H](C(=O)NCc2cccc3ccccc23)NC(=O)[C@H](CC(=O)N2CCCC2)N1 on Proteasome subunit beta type-8 (Homo sapiens, UniProt P28062)?
< 4.00

Give recorded pIC50 with Proteasome subunit beta type-8 (Homo sapiens, UniProt P28062) for the following compound: CCN(CC)C(=O)C[C@H](NC(=O)CCc1ccccc1)C(=O)N[C@@H](Cc1ccc(F)cc1)C(=O)NCc1cccc2ccccc12
4.26

Query the reported pIC50 for Proteasome subunit beta type-8 (Homo sapiens, UniProt P28062); item: O=C1CCc2cccc(c2)Oc2ccc(cc2)C[C@@H](C(=O)NCc2ccccc2F)NC(=O)[C@H](CC(=O)N2CCCC2)N1
4.68

###

target: Proteasome Macropain subunit MB1 (Homo sapiens, UniProt P28074); experiment: Inhibition of human 20S constitutive proteasome beta-5c subunit using Suc-LLVY-AMC as substrate measured over 1.5 to 2 hrs by plate reader assay
metric.name: pIC50
Convention used: pIC50 is expressed as -log10 of the molar concentration.

Below: 2 compounds and their reported pIC50.
{"test.smiles": "O=C1CCc2cccc(c2)OCCCC[C@@H](C(=O)NCc2ccccc2F)NC(=O)[C@H](CCN2CCC[C@@H]2c2ccccc2)N1", "pIC50": 4.06}
{"test.smiles": "O=C1CCc2cccc(c2)OCCCC[C@@H](C(=O)NCc2ccccc2F)NC(=O)[C@H](CC(=O)N2CCC[C@@H]2C2CC2)N1", "pIC50": 7.14}

Now, please, on to the next compound.
Suppose we examine the compound O=C1CCc2cccc(c2)OCCCC[C@@H](C(=O)NCc2ccccc2F)NC(=O)[C@H](CC(=O)N2CCC[C@H]2C2CC2)N1 ; what pIC50 value has been reported?
5.82

###

Target: Proteasome subunit beta type-8 (Homo sapiens, UniProt P28062)
Sequence (P28062 whole entry): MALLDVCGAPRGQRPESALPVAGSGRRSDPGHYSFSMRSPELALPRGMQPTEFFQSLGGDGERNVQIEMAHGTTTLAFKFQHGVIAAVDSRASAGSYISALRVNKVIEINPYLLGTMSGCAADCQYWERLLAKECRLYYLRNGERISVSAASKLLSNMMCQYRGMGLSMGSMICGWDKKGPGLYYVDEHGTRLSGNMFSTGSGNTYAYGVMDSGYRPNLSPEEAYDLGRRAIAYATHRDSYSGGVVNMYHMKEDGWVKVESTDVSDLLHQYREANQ
Assay: Inhibition of human 20S immunoproteasome beta-5i subunit using Suc-LLVY-AMC as substrate measured over 1.5 to 2 hrs by plate reader assay
pIC50: −log10 of the molar value.
metric.name: pIC50

{"compound": "O=C1N[C@@H](CC(=O)N2CCCC2)C(=O)N[C@H](C(=O)NCc2cccc3ccccc23)CCCCCCCCCC1Cc1ccccc1 (stereo not given in full)", "pIC50": "< 4.00"}
{"compound": "O=C1CCc2cccc(c2)OCCCC[C@@H](C(=O)NCc2ccccc2F)NC(=O)[C@H](CC(=O)N2CCC[C@H]2C2CC2)N1", "pIC50": 6.06}
{"compound": "O=C(N[C@H]1Cc2cccc(c2)Oc2ccc(cc2)C[C@@H](C(=O)NCc2ccccc2F)NC(=O)[C@H](CC(=O)N2CCC[C@@H]2c2ccccc2)NC1=O)c1ccccc1", "pIC50": "< 4.00"}
{"compound": "O=C1CCc2cccc(c2)OCCCC[C@@H](C(=O)NCc2ccccc2F)NC(=O)[C@H](CC(=O)N2CCC[C@@H]2c2ccccc2)N1", "pIC50": "< 4.00"}

Turning to the following compound.
Return pIC50 measured with Proteasome subunit beta type-8 (Homo sapiens, UniProt P28062) given this compound: O=C1CCCCCCCCOC[C@@H](C(=O)NCc2ccccc2F)NC(=O)[C@H](CC(=O)N2CCC[C@@H]2c2ccccc2)N1
< 4.00

###

Target: Proteasome Macropain subunit MB1 (Homo sapiens, UniProt P28074)
Sequence (P28074 whole entry): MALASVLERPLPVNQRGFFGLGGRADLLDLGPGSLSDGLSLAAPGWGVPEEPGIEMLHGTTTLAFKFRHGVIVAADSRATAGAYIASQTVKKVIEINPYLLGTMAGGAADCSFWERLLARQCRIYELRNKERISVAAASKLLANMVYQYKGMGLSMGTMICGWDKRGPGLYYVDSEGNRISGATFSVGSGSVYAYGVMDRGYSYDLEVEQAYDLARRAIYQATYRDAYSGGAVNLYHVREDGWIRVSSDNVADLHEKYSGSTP
Assay: Inhibition of human 20S constitutive proteasome beta-5c subunit using Suc-LLVY-AMC as substrate measured over 1.5 to 2 hrs by plate reader assay
Overview of recorded IC50 for various compounds

Look at this compound and give its reported IC50. CC(=O)N[C@H]1Cc2cccc(c2)Oc2ccc(cc2)C[C@@H](C(=O)NCc2ccccc2F)NC(=O)[C@H](CC(=O)N2CCC[C@@H]2c2ccccc2)NC1=O
> 100 µM

Return reported IC50; argument: O=C1CCCCCCCCCC[C@@H](C(=O)NCc2cccc3ccccc23)NC(=O)[C@H](CC(=O)N2CCCC2)N1
> 100 µM

IC50 lookup needed for O=C1CCc2cccc(c2)Oc2ccc(cc2)C[C@@H](C(=O)NCc2ccccc2F)NC(=O)[C@H](CC(=O)N2CCC[C@@H]2c2ccccc2)N1 , thanks.
> 100 µM
